System: nude mice, HT29 intrarenal xenograft, tumor weight T/C
measurement description: NCI In Vivo Anticancer Drug Screen. Data for tumor model HT29;CX-1 Human Adenocarcinoma (MER+) (intrarenal inoculation) in NU/NU Swiss (nude) mice
applied conditions: endpoint: mean tumor weight change; dose: 1200.0 mg/kg/injection; schedule: Q04DX004 (sc); vehicle: Klucel (hydroxypropylcellulose) (HPC); higher = larger tumour
Records with an inconclusive call do not appear.
Can you tell me T/C for the items I'm about to list?

Q: Which T/C value is on record for C(C#CCN1CCOCC1)#CCN1CCOCC1 ?
A: 72 % of control

Q: Which T/C value is on record for Cc1ccc(C2NC(=S)N3C(c4ccc(C)cc4)NC(=S)N23)cc1 (centres undefined) ?
A: 69 % of control

Q: Which T/C value is on record for O=c1ssc(=Nc2ccccc2)n1-c1ccccc1 ?
A: 98 % of control

Q: Which T/C value is on record for C[C@]12CCC(=O)C=C1CC[C@@H]1[C@@H]2C(=O)C[C@@]2(C)[C@H]1CC[C@]2(O)C(=O)CO ?
A: 42 % of control

Q: Which T/C value is on record for CC12CC(C(=O)O)C3(O)CC(C)(C1)CC(C)(C2)C3 (centres undefined) (tested in a mixture with another compound) ?
A: 110 % of control

Q: Which T/C value is on record for O=C(O)c1cc(Cc2ccc(O)c(C(=O)O)c2)ccc1O (tested in a mixture with another compound) ?
A: 114 % of control

Q: Which T/C value is on record for OCC1OC(n2cnc3c(NO)ncnc32)C(O)C1O (centres undefined) ?
A: 28 % of control

Q: Which T/C value is on record for O=c1[nH]c(=O)n(C2CC(O)C(CO)O2)cc1Br (centres undefined) ?
A: 91 % of control

Q: Which T/C value is on record for CCC(=O)O[C@H]1CC[C@H]2[C@@H]3CCC4=CC(=O)CC[C@]4(C)[C@H]3CC[C@]12C ?
A: 103 % of control

Q: Which T/C value is on record for CCc1ccccc1N1CCN(C(=O)c2cc(OC)c(OC)c(OC)c2)CC1 ?
A: 84 % of control

Q: Which T/C value is on record for Nc1ncnc2c1ncn2C1OC(CO)C(O)C1O (centres undefined) ?
A: 66 % of control

Q: Which T/C value is on record for Cc1ccc(C2NC(=O)c3ccccc3N2)s1 (centres undefined) ?
A: 95 % of control

Q: Which T/C value is on record for [I][Hg][CH2]C1OCCOC1[CH2][Hg][I] (centres undefined) ?
A: 80 % of control

Q: Which T/C value is on record for C#C[C@]1(O)CC[C@H]2[C@@H]3CCc4cc(O)ccc4[C@H]3CC[C@@]21C ?
A: 83 % of control

Q: Which T/C value is on record for Cc1ccc(C(=O)[O][Hg][CH2]C2COC([CH2][Hg][O]C(=O)c3ccc(C)cc3)CO2)cc1 (centres undefined) ?
A: 42 % of control

Q: Which T/C value is on record for O=C1NC(=O)NC(C(=O)O)N1 ?
A: 58 % of control

Q: Which T/C value is on record for COc1cc(C(=O)c2cc3c(cc2C)OCO3)cc(OC)c1OC ?
A: 82 % of control

Q: Which T/C value is on record for Cn1cc(C2NC(=O)c3ccccc3N2)c2ccccc21 (centres undefined) ?
A: 60 % of control

Q: Which T/C value is on record for Cc1ccc(S(=O)(=O)OCOS(=O)(=O)c2ccc(C)cc2)cc1 ?
A: 68 % of control
